- system_name: T1, canine PD-1 protein amino acids 25-168 with His tag (canine, UniProt A0A090BAM7 25-168)
- T1 construct: Expressed in Expi293F cells; used as immunogen and as antigen in ELISA and Octet; also called PD-1 His
- test_summary: Octet BLI, supernatant captured by anti-mouse IgG Fc, PD-1 His 20 nM
measurement_label: Response (nm)
Give bare numbers, in nm.

The cases that follow already have their Response (nm) on record.
| binder | reading_unit | Response (nm) |
| --- | --- | --- |
| PD-1 A-M10 (antibody, mouse IgG1, V domains shown, Mouse IgG1 kappa, hybridoma supernatant; also called 8H01) VH: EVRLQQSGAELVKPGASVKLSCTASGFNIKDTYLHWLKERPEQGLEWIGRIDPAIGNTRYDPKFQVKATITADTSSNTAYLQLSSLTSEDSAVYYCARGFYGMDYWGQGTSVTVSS VL: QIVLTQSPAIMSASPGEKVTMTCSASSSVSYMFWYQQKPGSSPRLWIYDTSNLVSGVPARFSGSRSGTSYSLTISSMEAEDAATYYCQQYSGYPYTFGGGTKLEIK | nm | 0.044 |
| PD-1 A-M3 (antibody, mouse IgG1, V domains shown, Mouse IgG1 kappa, hybridoma supernatant; also called 4G01) VH: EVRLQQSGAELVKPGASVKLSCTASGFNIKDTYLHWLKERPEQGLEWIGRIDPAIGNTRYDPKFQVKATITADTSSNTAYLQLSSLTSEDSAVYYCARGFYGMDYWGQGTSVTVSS VL: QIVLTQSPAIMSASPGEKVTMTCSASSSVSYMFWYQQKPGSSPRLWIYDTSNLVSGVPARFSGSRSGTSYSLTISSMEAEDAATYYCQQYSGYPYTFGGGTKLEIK | nm | 0.041 |
| PD-1 A-M15 (antibody, mouse IgG1, V domains shown, Mouse IgG1 kappa, hybridoma supernatant; also called 11E10) VH: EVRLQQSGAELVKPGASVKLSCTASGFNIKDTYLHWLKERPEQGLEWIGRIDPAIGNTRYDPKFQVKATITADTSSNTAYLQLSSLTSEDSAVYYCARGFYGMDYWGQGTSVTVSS VL: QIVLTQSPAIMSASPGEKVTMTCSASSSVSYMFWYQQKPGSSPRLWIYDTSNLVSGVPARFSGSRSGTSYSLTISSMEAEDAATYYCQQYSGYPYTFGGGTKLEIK | nm | 0.068 |
| PD-1 A-M11 (antibody, V domains shown, Mouse IgG1 kappa, hybridoma supernatant; The VL is therefore uncertain; also called 9B04) VH: EVQLQQSGAEVVKPGASVKLSCTASGFNIKDTYMHWVKQRPEQGLEWIGRIDPAIGNPKYDPKFQGRATITADTSSNTAYLQLSSLTSEDTAVYYCASGFYAMDCWGQGTSVTVSS VL: QIVLTQSPAIMSASPGEKVTMTCSASSSITYMFWYQQKPGSSPRLWIYDTSNLVSGVPARFSGSKSGTSYSLTITSMEAEDAATYYCQQYSGYPSTFGSGTKLEIK | nm | 0.049 |
| PD-1 A-M23 (antibody, mouse IgG1, V domains shown, Mouse IgG1 kappa, hybridoma supernatant; also called 18A08) VH: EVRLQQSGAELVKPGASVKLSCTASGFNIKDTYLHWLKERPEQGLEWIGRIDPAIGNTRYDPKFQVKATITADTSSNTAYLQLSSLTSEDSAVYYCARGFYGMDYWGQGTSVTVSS VL: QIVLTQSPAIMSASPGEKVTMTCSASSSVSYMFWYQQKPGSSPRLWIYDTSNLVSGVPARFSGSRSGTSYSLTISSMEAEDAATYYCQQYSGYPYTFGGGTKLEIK | nm | 0.061 |

Entry under test: PD-1 A-M1 (antibody, mouse IgG1, V domains shown, Mouse IgG1 kappa, tested as hybridoma supernatant; also called 2C08) VH: EVQLQQSGAELVKPGASVKLSCTASGFNIKDTYMHWVKQRPEQGLEWIGRIDPAIDNTKYDPKFQGKATITADTSSNTAYLQLSSLTSEDTAVYYCASGFYTMDYWGQGTSVTVSS VL: QIVLTQSPAIMSASPGEKVTMTCSASSSVTYMYWFQQKPGSSPRLWIYDTSNLVSGVPARFSGSRSGTSYSLTISSMEAEDAATYYCQQYSGHPSSFGSGTKLEIK . Its Response (nm) was 0.049
